- system tested: UniProtKB P35348
- Sequence (P35348 1-466): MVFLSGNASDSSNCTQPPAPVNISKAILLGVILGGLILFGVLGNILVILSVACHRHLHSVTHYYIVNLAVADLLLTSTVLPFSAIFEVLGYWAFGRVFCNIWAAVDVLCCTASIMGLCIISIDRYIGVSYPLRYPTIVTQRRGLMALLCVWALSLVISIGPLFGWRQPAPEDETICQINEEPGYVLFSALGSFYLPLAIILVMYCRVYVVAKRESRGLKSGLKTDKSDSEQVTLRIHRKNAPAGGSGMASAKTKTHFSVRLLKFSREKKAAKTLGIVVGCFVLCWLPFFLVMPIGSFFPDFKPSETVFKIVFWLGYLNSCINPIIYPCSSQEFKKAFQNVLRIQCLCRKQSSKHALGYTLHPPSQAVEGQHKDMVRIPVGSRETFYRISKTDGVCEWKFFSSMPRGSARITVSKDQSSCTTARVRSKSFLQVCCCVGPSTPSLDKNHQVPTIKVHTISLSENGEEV
- assay name: Radioligand binding, α1A adrenergic receptor ([3H]prazosin)
- assay context: hα1A Ki ± SD
The reader will find reported Ki values listed item by item below.
Your answer is read as µM, so omit the unit and give the number.

# compound, reported
records = [
    ("COc1cc(OC(F)F)cc(OC)c1CC(C)N (stereo not drawn) [Ψ-DODFMO]", 5.9),
    ("C=CCOc1cc(OC)c(CCN)c(OC)c1 [Ψ-2C-O-16, 4-allyloxy-2,6-dimethoxyphenethylamine]", 0.67),
]

Given COc1cc(OCCF)cc(OC)c1CCN [Ψ-2C-O-21] , state its recorded Ki.
4.6

Also C=C(C)COc1cc(OC)c(CCN)c(OC)c1 [Ψ-2C-O-3] ?
0.99

Also CCOc1cc(OC)c(CCN)c(OC)c1 [Ψ-2C-O-2, 2,6-dimethoxy-4-ethoxyphenethylamine] ?
3.3

----------
Dear all, this message contains pKi results, target or system h5-HT2A receptor (Homo sapiens, UniProt P28223).
Convention used: pKi is expressed as -log10 of the molar concentration.

A selection of reference data follows.
# compound, system tested, pKi
measured = [
    ("COc1cc(OC)c(CC(C)N)c(OC)c1 (stereo not drawn)", "h5-HT2A receptor (Homo sapiens, UniProt P28223)", 6.57),
    ("COc1cc(OCC(F)F)cc(OC)c1CC(C)N (stereo not drawn)", "h5-HT2A receptor (Homo sapiens, UniProt P28223)", 6.02),
    ("COc1cc(OCc2ccccc2)cc(OC)c1CCN", "h5-HT2A receptor (Homo sapiens, UniProt P28223)", 8.10),
    ("CCOc1cc(OC)c(CC(C)N)c(OC)c1 (stereo not drawn)", "h5-HT2A receptor (Homo sapiens, UniProt P28223)", 6.31),
    ("C=CCOc1cc(OC)c(CCN)c(OC)c1", "h5-HT2A receptor (Homo sapiens, UniProt P28223)", 7.27),
    ("COc1cc(OC(F)F)cc(OC)c1CC(C)N (stereo not drawn)", "h5-HT2A receptor (Homo sapiens, UniProt P28223)", 7.08),
]

Given `COc1cc(OC(F)F)cc(OC)c1CCN` , state its recorded pKi.
7.14

Also `COc1cc(OCCF)cc(OC)c1CCN` ?
6.01

Also C=C(C)COc1cc(OC)c(CC(C)N)c(OC)c1 (stereo not drawn) ?
7.28

----------
- system tested: h5-HT2C receptor (Homo sapiens, UniProt P28335)
- Sequence (P28335 33-458): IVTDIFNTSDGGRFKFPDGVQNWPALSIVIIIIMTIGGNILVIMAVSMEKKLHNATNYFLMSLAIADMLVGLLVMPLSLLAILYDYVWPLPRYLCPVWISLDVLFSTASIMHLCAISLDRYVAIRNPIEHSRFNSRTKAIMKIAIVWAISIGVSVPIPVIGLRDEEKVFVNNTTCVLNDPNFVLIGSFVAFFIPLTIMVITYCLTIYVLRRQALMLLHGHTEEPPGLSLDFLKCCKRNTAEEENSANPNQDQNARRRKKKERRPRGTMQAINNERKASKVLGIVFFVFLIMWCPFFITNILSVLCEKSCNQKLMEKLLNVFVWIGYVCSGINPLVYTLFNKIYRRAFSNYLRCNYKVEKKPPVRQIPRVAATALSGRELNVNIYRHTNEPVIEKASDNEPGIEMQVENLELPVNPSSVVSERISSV
- assay name: Radioligand binding, 5-HT2C receptor ([3H]mesulergine)
measured metric: log10 Ki (log10 of the value in nM)
Field: value | Transform: log10 | Quantity: Ki | Unit: nM

A selection of reference data follows.
# compound, reported
measured = [
    ("C=C(C)COc1cc(OC)c(CC(C)N)c(OC)c1 (centres unmarked)", 2.46),
    ("COc1cc(OCCF)cc(OC)c1CCN", 3.54),
    ("COc1cc(OCc2ccccc2)cc(OC)c1CC(C)N (centres unmarked)", 2.43),
    ("COc1cc(OC)c(CCN)c(OC)c1", 3.08),
    ("C=CCOc1cc(OC)c(CCN)c(OC)c1", 2.70),
]

Given `COc1cc(OCc2ccccc2)cc(OC)c1CCN` , state its recorded log10 Ki.
2.04

Also `COc1cc(OCC(F)(F)F)cc(OC)c1CCN` ?
3.34

Also CCOc1cc(OC)c(CC(C)N)c(OC)c1 (centres unmarked) ?
3.71

----------
- system tested: human 5-HT2B receptor (Homo sapiens, UniProt P41595)
- Construct: expressed in transfected cells; host or cells: HEK 293 cells
- Sequence (P41595 whole entry): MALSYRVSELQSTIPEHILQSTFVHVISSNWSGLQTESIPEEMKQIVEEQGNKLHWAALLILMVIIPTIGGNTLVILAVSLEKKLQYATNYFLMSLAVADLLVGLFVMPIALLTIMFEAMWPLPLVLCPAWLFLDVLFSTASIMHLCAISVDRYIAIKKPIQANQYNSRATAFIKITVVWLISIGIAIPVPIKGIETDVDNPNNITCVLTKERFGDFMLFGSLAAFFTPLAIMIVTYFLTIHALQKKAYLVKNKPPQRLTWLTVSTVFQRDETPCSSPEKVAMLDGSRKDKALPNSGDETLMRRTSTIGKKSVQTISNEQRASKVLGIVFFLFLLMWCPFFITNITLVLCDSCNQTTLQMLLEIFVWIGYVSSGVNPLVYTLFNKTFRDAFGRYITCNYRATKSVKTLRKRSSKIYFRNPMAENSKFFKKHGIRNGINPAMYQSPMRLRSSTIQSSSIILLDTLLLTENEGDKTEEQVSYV
- assay name: Activation potency and efficacy at the 5-HT2B receptor (Fluo-4 calcium, HEK 293 cells)
- Type: cell-based
- assay context: HEK293; relative to 5-HT (100%); read-out: h5-HT2B activation efficacy Emax ± SD
The reader will find reported Emax values listed item by item below.
Your answer is read as %, so omit the unit and give the number.

A selection of reference data follows.
# compound, display unit, Emax
data = [
    ("COc1cc(OC(F)F)cc(OC)c1CC(C)N (stereo not shown) [Ψ-DODFMO]", "%", 58),
    ("COc1cc(OC(F)F)cc(OC)c1CCN [Ψ-2C-O-35]", "%", 20),
    ("COc1cc(OC)c(CC(C)N)c(OC)c1 (stereo not shown) [TMA-6, 2,4,6-trimethoxyamphetamine]", "%", 59),
    ("C=CCOc1cc(OC)c(CCN)c(OC)c1 [Ψ-2C-O-16, 4-allyloxy-2,6-dimethoxyphenethylamine]", "%", 27),
    ("CCOc1cc(OC)c(CC(C)N)c(OC)c1 (stereo not shown) [Ψ-MEM, 2,6-dimethoxy-4-ethoxyamphetamine]", "%", 28),
]

Give the reported Emax for C=CCOc1cc(OC)c(CC(C)N)c(OC)c1 (stereo not shown) [Ψ-MALM, 4-allyloxy-2,6-dimethoxyamphetamine] (system: human 5-HT2B receptor (Homo sapiens, UniProt P41595)).
69

Also C=C(C)COc1cc(OC)c(CCN)c(OC)c1 [Ψ-2C-O-3] ?
17

Also C=C(C)COc1cc(OC)c(CC(C)N)c(OC)c1 (stereo not shown) [Ψ-MMALM, 2,6-dimethoxy-4-methallyloxyamphetamine] ?
33

Also COc1cc(OC)c(CCN)c(OC)c1 [Ψ-2C-O-1, 2,4,6-trimethoxyphenethylamine] ?
22

Also CCOc1cc(OC)c(CCN)c(OC)c1 [Ψ-2C-O-2, 2,6-dimethoxy-4-ethoxyphenethylamine] ?
27

----------
- system tested: human 5-HT2A receptor (Homo sapiens, UniProt P28223)
- Construct: expressed in transfected cells; host or cells: NIH-3T3 mouse embryonic fibroblasts
- Sequence (P28223 whole entry): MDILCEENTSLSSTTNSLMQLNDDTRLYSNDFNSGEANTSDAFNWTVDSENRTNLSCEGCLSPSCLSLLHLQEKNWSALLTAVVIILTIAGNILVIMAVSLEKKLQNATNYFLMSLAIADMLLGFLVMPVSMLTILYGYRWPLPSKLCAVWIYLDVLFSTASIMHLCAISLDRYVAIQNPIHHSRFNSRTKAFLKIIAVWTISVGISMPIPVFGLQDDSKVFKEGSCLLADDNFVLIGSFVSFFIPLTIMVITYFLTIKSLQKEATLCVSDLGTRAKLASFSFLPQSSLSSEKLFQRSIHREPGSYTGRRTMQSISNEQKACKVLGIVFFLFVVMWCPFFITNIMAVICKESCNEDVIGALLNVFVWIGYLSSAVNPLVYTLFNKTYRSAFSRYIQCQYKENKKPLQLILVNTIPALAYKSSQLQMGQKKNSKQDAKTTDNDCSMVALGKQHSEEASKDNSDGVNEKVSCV
- assay name: Activation potency and efficacy at the 5-HT2A receptor (FLIPR calcium, NIH-3T3 cells)
- Format: cell-based
Param label: returns label 1 when EC50 < 40 nM, returns label 0 otherwise, including exact equality.

Example cases with answers are listed next.
# compound, class label
data = [
    ("COc1cc(OCC(F)(F)F)cc(OC)c1CC(C)N (centres unmarked)", "label 0"),
    ("COc1cc(OCCF)cc(OC)c1CCN", "label 1"),
    ("C=C(C)COc1cc(OC)c(CC(C)N)c(OC)c1 (centres unmarked)", "label 0"),
]

Next item in the queue.
Does `COc1cc(OCC(F)(F)F)cc(OC)c1CCN` have EC50 strictly under 40 nM?
label 0

----------
The reader will find reported Ki values listed item by item below.
- system tested: UniProt:Q01959
- Sequence (Q01959 whole entry): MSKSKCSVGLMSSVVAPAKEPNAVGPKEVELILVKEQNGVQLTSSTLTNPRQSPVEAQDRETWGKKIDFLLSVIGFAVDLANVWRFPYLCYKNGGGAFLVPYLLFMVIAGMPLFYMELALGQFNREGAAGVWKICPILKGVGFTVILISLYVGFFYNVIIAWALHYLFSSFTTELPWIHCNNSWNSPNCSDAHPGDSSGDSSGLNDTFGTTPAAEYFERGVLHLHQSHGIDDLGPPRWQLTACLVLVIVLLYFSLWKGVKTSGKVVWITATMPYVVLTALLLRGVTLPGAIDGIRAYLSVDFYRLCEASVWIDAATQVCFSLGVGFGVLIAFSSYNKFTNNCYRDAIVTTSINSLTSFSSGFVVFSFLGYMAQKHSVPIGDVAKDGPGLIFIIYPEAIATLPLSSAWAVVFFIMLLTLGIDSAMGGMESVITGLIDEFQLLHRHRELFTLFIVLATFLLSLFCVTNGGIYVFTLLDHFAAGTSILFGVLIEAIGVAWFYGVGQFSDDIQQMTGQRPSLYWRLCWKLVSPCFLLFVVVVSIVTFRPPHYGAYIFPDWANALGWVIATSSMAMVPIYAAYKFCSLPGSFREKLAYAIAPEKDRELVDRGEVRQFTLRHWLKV
- assay name: Radioligand binding, DAT ([3H]WIN35,428)
- assay context: hDAT Ki ± SD, [3H]WIN35,428

A selection of reference data follows.
# compound, system tested, Ki
data = [
    ("COc1cc(OCCF)cc(OC)c1CC(C)N (centres unmarked)", "UniProt:Q01959", "> 8.5 µM"),
    ("COc1cc(OCC(F)(F)F)cc(OC)c1CC(C)N (centres unmarked)", "UniProt:Q01959", "6.4 µM"),
    ("COc1cc(OCC(F)(F)F)cc(OC)c1CCN", "UniProt:Q01959", "> 8.5 µM"),
    ("CCOc1cc(OC)c(CCN)c(OC)c1", "UniProt:Q01959", "> 8.5 µM"),
]

With those in mind, consider the next compound.
Given `COc1cc(OCc2ccccc2)cc(OC)c1CCN` , state its recorded Ki.
1.3 µM

----------
The reader will find reported Selectivity (binding ratio) 5-HT2A/5-HT2C values listed item by item below.
- system tested: h5-HT2A receptor (Homo sapiens, UniProt P28223)
- Sequence (P28223 whole entry): as the sequence (P28223 whole entry) above
- assay name: Radioligand binding, 5-HT2A receptor ([3H]ketanserin)
- assay context: preference for 5-HT2A (Ki 5-HT2C divided by Ki 5-HT2A)

# compound, reported
rows = [
    ("C=CCOc1cc(OC)c(CC(C)N)c(OC)c1 (stereo not drawn)", 10),
]

Given COc1cc(OCc2ccccc2)cc(OC)c1CC(C)N (stereo not drawn) , state its recorded Selectivity (binding ratio) 5-HT2A/5-HT2C.
13

Also `COc1cc(OCC(F)(F)F)cc(OC)c1CCN` ?
3.7

Also `COc1cc(OC(F)F)cc(OC)c1CCN` ?
7.1

Also COc1cc(OCC(F)(F)F)cc(OC)c1CC(C)N (stereo not drawn) ?
9.6

Also COc1cc(OCC(F)F)cc(OC)c1CC(C)N (stereo not drawn) ?
10

Also `COc1cc(OCCF)cc(OC)c1CCN` ?
3.6

Also COc1cc(OCCF)cc(OC)c1CC(C)N (stereo not drawn) ?
7.1

Also `C=CCOc1cc(OC)c(CCN)c(OC)c1` ?
9.3

Also `COc1cc(OCc2ccccc2)cc(OC)c1CCN` ?
15
